# System: CHEAL (Lambsquarters, Common)
# assay_overview: Postemergence herbicidal evaluation
# Assay type: in vivo, Chenopodium album
# condition_description: postemergence, rate 0.0156 kg/ha
property_measured: Herbicidal rating CHEAL
I only need the number, thanks.

Previously resolved entries follow.
- compound: "Cn1c(C(F)(F)F)cc(=O)n(-c2cc(N=C3SCC(=O)N3C3CCCC3)c(Cl)cc2F)c1=O [Compound 166]"
  property_measured: "Herbicidal rating CHEAL"
  observed_result: 0.0
- compound: "CC(C)N1C(=O)CSC1=Nc1cc(-n2c(=O)cc(C(F)(F)F)n(C)c2=O)c(F)cc1Cl [Compound 164]"
  property_measured: "Herbicidal rating CHEAL"
  observed_result: 9.0
- compound: "CCOC(=O)CN1C(=O)C(OC)SC1=Nc1cc(-n2c(=O)cc(C(F)(F)F)n(C)c2=O)c(F)cc1Cl (stereo not shown) [Compound 160]"
  property_measured: "Herbicidal rating CHEAL"
  observed_result: 2.0

# Herbicidal rating CHEAL lookup, item C=CCN1C(=O)C(CC(=O)NS(=O)(=O)c2ccccc2)SC1=Nc1cc(-n2c(=O)cc(C(F)(F)F)n(C)c2=O)c(F)cc1Cl (stereo not shown) [Compound 101]
4.0

Source: patent US20020137929A1
